Catalogue of molecules with associated inhibition
Target: P2X purinoceptor 7 (Homo sapiens)
Assay: Antagonist activity at human P2X7 receptor expressed in HEK293 cells assessed as inhibition of ATP-induced receptor pore formation at 1 uM by propidium iodide dye uptake based fluorescence analysis
Format: cell-based
Conditions: filed as antagonist
Give the quantity in %, number only.

A selection of reference data follows.
CS(=O)(=O)c1ccc(-c2nc(C(=O)NCc3cn(-c4cc(Br)ccn4)nn3)cs2)cc1 : 112
COc1ccc(-c2ccc(Cl)c(C(=O)NCc3cn(-c4cc(Cl)ccn4)nn3)c2)cc1OC : 59.2
CC(C)S(=O)(=O)c1ccc(-c2ncc(C(=O)NCc3cn(-c4cc(Cl)ccn4)nn3)s2)cc1 : 56.3

# ---- query molecule ----
Q: Entry "O=C(NCc1cn(-c2cc(Cl)ccn2)nn1)c1cnc(-c2cccc(NS(=O)(=O)N3CCOCC3)c2)s1" , system P2X purinoceptor 7 (Homo sapiens): what inhibition was measured?
Ans: 78.8

====

Molecular target: P2X purinoceptor 7 (Mus musculus) (UniProt Q9Z1M0)
Sequence (Q9Z1M0 whole entry): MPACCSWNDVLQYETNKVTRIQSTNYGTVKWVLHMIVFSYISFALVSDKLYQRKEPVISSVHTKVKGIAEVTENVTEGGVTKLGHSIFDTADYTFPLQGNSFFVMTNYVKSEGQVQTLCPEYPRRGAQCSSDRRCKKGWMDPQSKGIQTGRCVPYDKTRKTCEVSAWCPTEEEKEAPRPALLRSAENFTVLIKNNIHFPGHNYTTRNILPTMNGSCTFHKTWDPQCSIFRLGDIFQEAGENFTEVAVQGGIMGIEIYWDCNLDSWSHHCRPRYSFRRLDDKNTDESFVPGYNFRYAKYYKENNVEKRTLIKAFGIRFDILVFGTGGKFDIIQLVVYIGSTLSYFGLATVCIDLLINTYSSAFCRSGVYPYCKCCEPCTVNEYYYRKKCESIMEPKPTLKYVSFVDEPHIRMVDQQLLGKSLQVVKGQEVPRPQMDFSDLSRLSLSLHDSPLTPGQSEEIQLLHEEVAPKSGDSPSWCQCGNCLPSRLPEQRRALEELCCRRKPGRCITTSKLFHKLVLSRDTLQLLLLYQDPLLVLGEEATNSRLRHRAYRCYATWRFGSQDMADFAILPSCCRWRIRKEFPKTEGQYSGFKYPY
Experiment: Antagonist activity at mouse P2X7 receptor expressed in HEK293 cells assessed as inhibition of ATP-induced receptor pore formation at 200 nM by propidium iodide dye uptake based fluorescence analysis
Format: cell-based
Active and inactive are the calls of the source. No cut-off for these calls is given here.
Reported Metric: inhibition

Nc1cccc(-c2ccc(Cl)c(C(=O)NCc3cn(-c4cc(Cl)ccn4)nn3)c2)c1 : 19.1%
Nc1cccc(-c2ncc(C(=O)NCc3cn(-c4cc(Cl)ccn4)nn3)s2)c1 : 2.9%
CS(=O)(=O)c1ccc(-c2ncc(C(=O)NCc3cn(-c4cccc(Br)n4)nn3)s2)cc1 : inactive
CC(C)Cc1ccc(-c2ccc(Cl)c(C(=O)NCc3cn(-c4cc(Cl)ccn4)nn3)c2)cc1 : inactive
CS(=O)(=O)Nc1cccc(-c2ccc(Cl)c(C(=O)NCc3cn(-c4cc(Cl)ccn4)nn3)c2)c1 : 32.8%
COc1ccc(-c2ccc(Cl)c(C(=O)NCc3cn(-c4cc(Cl)ccn4)nn3)c2)cc1OC : inactive

# ---- query compound ----
Q: Which measured inhibition value corresponds to "CS(=O)(=O)c1ccc(-c2nc(C(=O)NCc3cn(-c4cccc(Br)n4)nn3)cs2)cc1" ?
Ans: inactive

====

Molecular target: P2X purinoceptor 7 (Homo sapiens) (UniProt Q99572)
Sequence (Q99572 whole entry): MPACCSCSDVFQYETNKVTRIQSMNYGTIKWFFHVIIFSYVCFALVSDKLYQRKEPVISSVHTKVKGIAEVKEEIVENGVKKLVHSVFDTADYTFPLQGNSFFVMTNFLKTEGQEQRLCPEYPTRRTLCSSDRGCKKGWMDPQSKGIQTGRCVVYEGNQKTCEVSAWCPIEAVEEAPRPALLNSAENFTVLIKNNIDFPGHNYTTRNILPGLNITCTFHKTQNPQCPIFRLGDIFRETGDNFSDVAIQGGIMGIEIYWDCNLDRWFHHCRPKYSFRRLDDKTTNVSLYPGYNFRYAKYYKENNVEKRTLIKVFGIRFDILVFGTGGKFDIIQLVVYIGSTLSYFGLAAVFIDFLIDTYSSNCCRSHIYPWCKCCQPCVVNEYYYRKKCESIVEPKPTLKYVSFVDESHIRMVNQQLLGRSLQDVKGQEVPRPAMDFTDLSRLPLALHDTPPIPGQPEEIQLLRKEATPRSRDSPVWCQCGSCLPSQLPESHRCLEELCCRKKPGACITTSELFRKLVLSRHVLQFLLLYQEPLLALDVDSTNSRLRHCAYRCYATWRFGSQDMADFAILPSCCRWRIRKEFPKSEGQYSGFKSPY
Test: Antagonist activity at human P2X7 receptor expressed in HEK293 cells assessed as inhibition of ATP-induced receptor pore formation at 200 nM by propidium iodide dye uptake based fluorescence analysis
Format: cell-based
The source made the active and inactive calls. The calls are words filed in the database; no cut-off is given here.
Reported Metric: inhibition

CS(=O)(=O)c1cccc(-c2ncc(C(=O)NCc3cn(-c4cc(Cl)ccn4)nn3)s2)c1 : inactive
CC(C)S(=O)(=O)c1ccc(-c2ncc(C(=O)NCc3cn(-c4cc(Cl)ccn4)nn3)s2)cc1 : 22.1%
Nc1cccc(-c2ccc(Cl)c(C(=O)NCc3cn(-c4cc(Cl)ccn4)nn3)c2)c1 : 24.4%
CS(=O)(=O)c1ccc(-c2ncc(C(=O)NCc3cn(-c4cccc(Br)n4)nn3)s2)cc1 : inactive

====

Assay: Half life in human liver microsomes
Type: ADME, Microsome
Reported Metric: half-life (h)
Give the quantity in h, number only.

A selection of reference data follows.
CS(=O)(=O)c1ccc(-c2nc(C(=O)NCc3cn(-c4cc(Br)ccn4)nn3)cs2)cc1 : 1.75
O=C(NCC1(N2CCN(c3ccccc3)CC2)CCOCC1)c1cccnc1Sc1ccccc1 : 0.709
CS(=O)(=O)Nc1cccc(-c2ccc(Cl)c(C(=O)NCc3cn(-c4cc(Cl)ccn4)nn3)c2)c1 : 0.947

Q: Which measured half-life value corresponds to "O=C(NCc1cn(-c2cc(Cl)ccn2)nn1)c1cnc(-c2cccc(NS(=O)(=O)N3CCOCC3)c2)s1" ?
Ans: 1.2

Q: Next record, please: "O=C(NCc1cn(-c2cc(Cl)ccn2)nn1)c1cnc(-c2ccc(NS(=O)(=O)N3CCOCC3)cc2)s1"
Ans: 1.89
